Ref: paper PMC7826789

System: MARK1
Conditions: Compound Concentration (nM):1000;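 further: KINOMEscan scanMAX binding as percent activity remaining versus control; lower means stronger binding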
Decision: Percent Control beneath 90% gives Condition met; Percent Control meeting or exceeding 90% gives Condition not met.

[[record]]
compound = "Cl.O=C(Nc1ccc(Oc2ccc3[nH]c(NC(=O)c4ccccc4)nc3c2)cc1)Nc1cc(C(F)(F)F)ccc1F [GW709042A]"
label = "Condition met"

[[record]]
compound = "C[C@@H](Oc1cc(-n2cnc3ccc(OC4CCN(C)CC4)cc32)sc1C(N)=O)c1ccccc1Cl [GSK579289A]"
label = "Condition met"

[[record]]
compound = "C/C(Nc1ccc(S(N)(=O)=O)cc1)=C1/C(=O)Nc2ccccc21 [GW335962X]"
label = "Condition met"

[[record]]
compound = "Cc1cc(O)cc(C)c1/C=C/c1cncc(C(N)=O)c1 [GW435821X]"
label = "Condition not met"

[[record]]
compound = "COc1cc(C)c(N(C)C(=O)CN(C)C)cc1Nc1nc(Nc2cccc(F)c2C(N)=O)c2cc[nH]c2n1"
label = "Condition not met"

[[record]]
compound = "CCc1ccc(Oc2nccc(-c3c(-c4ccc(F)cc4)ncn3C3CCNCC3)n2)cc1"
label = "Condition met"


Is Percent Control strictly under 90% for the entry CC1=C(C(=O)Nc2ccc3[nH]ncc3c2)C(c2ccc(Cl)c(Cl)c2)CC(=O)N1 (stereo not drawn) [GSK299115A] ? Condition not met

Thanks! And `NS(=O)(=O)c1ccc(N/N=C2\C(=O)Nc3ccc(-c4cnco4)cc32)cc1` ? Condition met

Thanks! And COc1cc(C=NNc2ncnc3c2cnn3-c2ccccc2)ccc1O [GW513184X] ? Condition not met

Thanks! And NS(=O)(=O)c1ccc(N/N=C2\C(=O)Nc3ccc(C(=O)NCc4ccncc4)cc32)cc1 [GW300657X] ? Condition not met

Thanks! And COc1ccc2[nH]c3c4[nH]c5ccc(OC)cc5c4c4c(c3c2c1)C(=O)NC4=O [GW296115X] ? Condition not met

* * *

Parameter: Percent Control. Scope: all listed entries.
Tested on: MAPKAPK5
Conditions: Compound Concentration (nM):1000
Numeric only. Scale: %

Here are 5 molecules together with their reported answers.
[[record]]
molecule = "COc1cc2ncnc(Nc3ccc4c(cnn4Cc4ccccc4)c3)c2cc1OC.Cl [GW282449A]"
experimental_readout = "Percent Control"
reported_value = 88

[[record]]
molecule = "COc1cc(C)c(N(C)C(=O)CN(C)C)cc1Nc1nc(Nc2cccc(F)c2C(N)=O)c2cc[nH]c2n1 [GSK2219385]"
experimental_readout = "Percent Control"
reported_value = 92

[[record]]
molecule = "CN1CCN(C(=O)c2ccc(NC(=O)Nc3ccc(N(C)c4ccnc(Nc5ccc(CS(C)(=O)=O)cc5)n4)cc3)cc2)CC1.Cl [GW830263A]"
experimental_readout = "Percent Control"
reported_value = 84

[[record]]
molecule = "C[C@@H](Oc1cc(-n2cnc3ccc(OC4CCN(C)CC4)cc32)sc1C(N)=O)c1ccccc1Cl [GSK579289A]"
experimental_readout = "Percent Control"
reported_value = 100

[[record]]
molecule = "Nc1ncnc2occ(-c3ccc(NC(=O)Nc4cc(C(F)(F)F)ccc4F)cc3)c12 [GW770249X]"
experimental_readout = "Percent Control"
reported_value = 100


Field request: Percent Control | item: C/C(Nc1ccc(S(N)(=O)=O)cc1)=C1/C(=O)Nc2ccccc21 [GW335962X] 100

Thanks! And COc1ccc2c(-c3ccnc(Nc4cccc(OC(F)(F)F)c4)n3)cnn2n1 [GW810372X] ? 100

* * *

Tested on: TLK1
Conditions: Compound Concentration (nM):1000
Parameter: Percent Control. Scope: all listed entries.
Numeric only. Scale: %

[[record]]
molecule = "CCS(=O)(=O)c1ccc(OC)c(Nc2ncc(-c3cccc(F)c3)o2)c1 [GW621970X]"
scale_unit = "%"
reported_value = 100

[[record]]
molecule = "COc1cc(N2CCN(C(C)C)CC2)ccc1Nc1nc(Nc2ccc(F)cc2C(=O)NC[C@@H](O)CO)c2cc[nH]c2n1 [GSK1392956A]"
scale_unit = "%"
reported_value = 83

[[record]]
molecule = "COc1ccccc1-c1cc(/C=C2\\C(=O)Nc3ncc(Br)cc32)cc(Br)c1O [GW442130X]"
scale_unit = "%"
reported_value = 100


Query for TLK1: what Percent Control does the record show for CCS(=O)(=O)c1ccc(OC)c(Nc2ncc(-c3cccc(OC)c3)o2)c1 [GW580509X] ? 100

Thanks! And CC(C)COC(=O)c1ccc2c(c1)/C(=C/Nc1ccc(S(N)(=O)=O)cc1)C(=O)N2 [GW416981X] ? 100

Thanks! And O=C(Nc1n[nH]c2nc(-c3ccc(O)cc3)c(Br)cc12)C1CC1 [SB-725317] ? 100

* * *

Tested on: PCTK1
Construct: gene CDK16
Settings: Compound Concentration (nM):1000
Parameter: Percent Control. Scope: all listed entries.
Numeric only. Scale: %

Here are 7 compounds together with their reported answers.
[[record]]
compound = "COc1cc(N2CCN(C(C)C)CC2)ccc1Nc1nc(Nc2ccc(F)cc2C(=O)NC[C@@H](O)CO)c2cc[nH]c2n1 [GSK1392956A]"
experimental_readout = "Percent Control"
reported_value = 82

[[record]]
compound = "Cl.O=C(Nc1ccc(Oc2ccc3[nH]c(NC(=O)c4ccco4)nc3c2)cc1)Nc1cc(C(F)(F)F)ccc1F [GW683134A]"
experimental_readout = "Percent Control"
reported_value = 100

[[record]]
compound = "COc1cc2ncn(-c3cc(O[C@H](C)c4ccccc4Cl)c(C(N)=O)s3)c2cc1OC [GSK237701A]"
experimental_readout = "Percent Control"
reported_value = 90

[[record]]
compound = "COC(=O)Nc1nc2ccc(Oc3ccc(NC(=O)Nc4cc(C(F)(F)F)ccc4F)cc3)cc2s1.Cl [GW693917A]"
experimental_readout = "Percent Control"
reported_value = 74

[[record]]
compound = "COc1cc(/C=N/Nc2ncnc3[nH]ncc23)ccc1O [GW578748X]"
experimental_readout = "Percent Control"
reported_value = 100

[[record]]
compound = "COc1cc(C)c(N(C)C(=O)CN(C)C)cc1Nc1nc(Nc2cccc(F)c2C(N)=O)c2cc[nH]c2n1"
experimental_readout = "Percent Control"
reported_value = 79

[[record]]
compound = "COc1ccc2c(-c3ccnc(Nc4cccc(OC(F)(F)F)c4)n3)cnn2n1 [GW810372X]"
experimental_readout = "Percent Control"
reported_value = 100


We next turn to a different compound, shown below.
Field request: Percent Control | item: CC1=C(C(=O)Nc2ccc3[nH]ncc3c2)C(c2ccc(Cl)c(Cl)c2)CC(=O)N1 (centres unmarked) [GSK299115A] 85

* * *

Test system: MKK7
Construct: gene MAP2K7
Settings: Compound Concentration (nM):1000
experimental.readout: Percent Control (%)
Numeric only. Scale: %

[[record]]
compound = "Cl.O=C(O[C@H]1CN[C@H](C#Cc2cc3ncnc(Nc4ccc5c(cnn5Cc5ccccc5)c4)c3s2)C1)N1CCOCC1 [GSK200398A]"
experimental_readout = "Percent Control"
reported_value = 75

[[record]]
compound = "Cl.c1ccc(Cc2nc3ccc(Nc4ncnc5ccccc45)cc3[nH]2)cc1 [GR269666A]"
experimental_readout = "Percent Control"
reported_value = 100

[[record]]
compound = "CCc1ccc(Oc2nccc(-c3c(-c4ccc(F)cc4)ncn3C3CCNCC3)n2)cc1 [SB-242719]"
experimental_readout = "Percent Control"
reported_value = 90

[[record]]
compound = "Cl.O=C(Nc1ccc(Oc2ccc3[nH]c(NC(=O)c4ccco4)nc3c2)cc1)Nc1cc(C(F)(F)F)ccc1F [GW683134A]"
experimental_readout = "Percent Control"
reported_value = 100

[[record]]
compound = "COc1ccc2c(-c3ccnc(Nc4cccc(OC(F)(F)F)c4)n3)cnn2n1 [GW810372X]"
experimental_readout = "Percent Control"
reported_value = 100

[[record]]
compound = "COc1cc(C)c(N(C)C(=O)CN(C)C)cc1Nc1nc(Nc2cccc(F)c2C(N)=O)c2cc[nH]c2n1 [GSK2219385]"
experimental_readout = "Percent Control"
reported_value = 97

[[record]]
compound = "COc1cc2ncnc(Nc3ccc4c(cnn4Cc4ccccc4)c3)c2cc1OC.Cl [GW282449A]"
experimental_readout = "Percent Control"
reported_value = 100


We next turn to a different compound, shown below.
Field request: Percent Control | item: O=C(Nc1n[nH]c2nc(-c3ccc(O)cc3)c(Br)cc12)C1CC1 [SB-725317] 100

* * *

Parameter: Percent Control. Scope: all listed entries.
Tested on: GRK1
Conditions: Compound Concentration (nM):1000

Here are 5 compounds together with their reported answers.
[[record]]
compound = "Cl.c1ccc(Cc2nc3ccc(Nc4ncnc5ccccc45)cc3[nH]2)cc1 [GR269666A]"
reported_value = "100%"

[[record]]
compound = "Cl.O=C(Nc1ccc(Oc2ccc3[nH]c(NC(=O)c4ccco4)nc3c2)cc1)Nc1cc(C(F)(F)F)ccc1F [GW683134A]"
reported_value = "100%"

[[record]]
compound = "C/C(Nc1ccc(S(N)(=O)=O)cc1)=C1/C(=O)Nc2ccccc21 [GW335962X]"
reported_value = "85%"

[[record]]
compound = "CN(C)CCNC(=O)Nc1ccc(N(C)c2ccnc(Nc3ccc(CS(C)(=O)=O)cc3)n2)cc1.Cl [GW830900A]"
reported_value = "89%"

[[record]]
compound = "NS(=O)(=O)c1ccc(N/N=C2\\C(=O)Nc3ccc(C(=O)NCc4ccncc4)cc32)cc1 [GW300657X]"
reported_value = "69%"


Field request: Percent Control | item: `CCn1c(-c2nonc2N)nc2c(C#CC(C)(C)O)nc(OCCNC)cc21.Cl` 77%

Thanks! And COc1cc(C=NNc2ncnc3c2cnn3-c2ccccc2)ccc1O [GW513184X] ? 100%

Thanks! And Cl.O=C(O[C@H]1CN[C@H](C#Cc2cc3ncnc(Nc4ccc5c(cnn5Cc5ccccc5)c4)c3s2)C1)N1CCOCC1 [GSK200398A] ? 86%
